# System: HCV genotype 1b (Con1) replicon in HUH-7 cells
# assayInfo: HCV replicon luciferase reporter assay, genotype 1b
# Format: cell-based
# statedConditions: Hepatitis C virus, Huh-7, 72 h, HCV genotype 1b replicon luciferase, 3 days incubation, read-out: LE_1b (EC50, range)
measuredParameter: EC50

COc1ccc2c(O[C@@H]3C[C@H]4C(=O)N[C@]5(C(=O)NS(=O)(=O)C6CC6)C[C@H]5/C=C\CC[C@@H](C)C[C@@H](C)[C@H](NC(=O)OC(C)(C)C)C(=O)N4C3)nc(-c3ccc(OC(C)C)cn3)cc2c1 [Compound 5201] :: < 5.46 nM
C[C@H]1CC/C=C\[C@@H]2C[C@@]2(C(=O)NS(=O)(=O)C2CC2)NC(=O)[C@@H]2C[C@@H](Oc3nccc4c5c(ccc34)OC(F)(F)O5)CN2C(=O)[C@@H](NC(=O)OC(C)(C)C)[C@H](C)C1 [Compound 5256] :: 4.82 to 103 nM
COc1ccc2c(O[C@@H]3C[C@H]4C(=O)N[C@]5(C(=O)NS(=O)(=O)C6(CF)CC6)C[C@H]5/C=C\CC[C@@H](C)C[C@@H](C)[C@H](NC(=O)OC(C)(C)C)C(=O)N4C3)ncc(OC)c2c1 [Compound 4156] :: < 5.46 nM
CCOc1ccc2c(O[C@@H]3C[C@H]4C(=O)N[C@]5(C(=O)NS(=O)(=O)C6(C)CC6)C[C@H]5/C=C\CC[C@@H](C)C[C@@H](C)[C@H](NC(=O)OCC5(C)CC5)C(=O)N4C3)nccc2c1 [Compound 5140] :: < 5.46 nM
COc1ccc2c(O[C@@H]3C[C@H]4C(=O)N[C@]5(C(=O)NS(=O)(=O)C6(C)CC6)C[C@H]5/C=C\CC[C@H](C)C[C@@H](C)[C@H](NC(=O)O[C@H](C)C(F)(F)F)C(=O)N4C3)nc(-c3ccc(OC(C)C)cc3)c(OC)c2c1 [Compound 5349] :: < 5.46 nM
CCOc1ccc2c(O[C@@H]3C[C@H]4C(=O)N[C@]5(C(=O)NS(=O)(=O)C6CC6)C[C@H]5/C=C\CC[C@@H](C)C[C@@H](CC)[C@H](NC(=O)OC(C)(C)C)C(=O)N4C3)nccc2c1 [Compound 5361] :: 0.51 to 1 nM
COc1cc2cc(-c3ccc(OC(C)C)cc3)nc(O[C@@H]3C[C@H]4C(=O)N[C@]5(C(=O)NS(=O)(=O)C6CC6)C[C@H]5/C=C\CC[C@H](C)C[C@@H](C)[C@H](NC(=O)OC(C)(C)C(F)(F)F)C(=O)N4C3)c2cc1F [Compound 3189] :: < 5.46 nM
CC[C@@H]1C[C@H](C)CC/C=C\[C@@H]2C[C@@]2(C(=O)NS(=O)(=O)C2(C)CC2)NC(=O)[C@@H]2C[C@@H](Oc3nc4c(c5ccccc35)OCCC4)CN2C(=O)C1NC(=O)OC(C)(C)C(F)(F)F (stereo partly drawn) [Compound 6028] :: < 5.46 nM
[2H]C([2H])([2H])C(OC(=O)N[C@@H]1C(=O)N2C[C@H](Oc3nnc(OC)c4ccccc34)C[C@H]2C(=O)N[C@]2(C(=O)NS(=O)(=O)C3(C)CC3)C[C@H]2/C=C\CC[C@H](C)C[C@H]1C)(C([2H])([2H])[2H])C(F)(F)F [Compound 5009] :: < 5.46 nM
